Tested on: CCRIS mutagenicity, Ames/micronucleus/aberration tests
procedure-text: CCRIS mutagenicity studies
condition-details: Test System: AMES SALMONELLA TYPHIMURIUM; Strain/Indicator: TA100; Metabolic Activation: RAT, LIVER, S-9; Method: STANDARD PLATE
The source made the active and inactive calls. No rule for the calls is given here.
Hello, when you answer, please use one of the following outcomes: label 1 (active), label 0 (inactive)

C/C=C/C=C/CCCCCCCOC(C)=O | label 0

Incoming: Record request — test call for C/C=C(/C(=C/C)c1ccc(O)cc1)c1ccc(O)cc1
Outgoing: label 0

Incoming: How did this test come out for Cc1ccc(S(=O)(=O)OC(C)C)cc1 ?
Outgoing: label 1

Incoming: # lookup: test call for CC(C)COS(C)(=O)=O
Outgoing: label 1

Incoming: What classification did CCc1cccc2c3c([nH]c12)C(C)(CC)OCC3 (centres undefined) end up with in this test?
Outgoing: label 0

Incoming: Outcome logged for CCC(=O)Oc1ccc(/C(CC)=C(\CC)c2ccc(OC(=O)CC)cc2)cc1 in this assay:
Outgoing: label 0

Incoming: What classification did CCOP(=O)(OCC)Oc1cc(C)nc(C(C)C)n1 end up with in this test?
Outgoing: label 0

Incoming: For O=NO , what call appears in the results of this test?
Outgoing: label 1

Incoming: // return assay outcome for O[C@H]1C=Cc2c(cc3ccc4cccc5ccc2c3c45)[C@@H]1O
Outgoing: label 1

====

Tested on: CCRIS mutagenicity, Ames/micronucleus/aberration tests
procedure-text: CCRIS mutagenicity studies
condition-details: Test System: AMES SALMONELLA TYPHIMURIUM; Strain/Indicator: YG1024; Metabolic Activation: NONE; Method: PREINCUBATION
Activity calls are given as the source filed them. No rule for the calls is given here.
Use one of these outcomes when replying: Yes = active, No = inactive

Incoming: Which outcome was assigned to Nc1ncnc2c1ncn2Cc1ccc([N+](=O)[O-])cc1 in this test?
Outgoing: No

Incoming: How was Nc1ncnc2c1ncn2-c1ccc([N+](=O)[O-])cc1[N+](=O)[O-] classified in this test?
Outgoing: Yes

====

Tested on: CCRIS mutagenicity, Ames/micronucleus/aberration tests
procedure-text: CCRIS mutagenicity studies
condition-details: End Point: IN VITRO CHROMOSOMAL ABERRATIONS; Test System: CHINESE HAMSTER OVARY CELLS; Metabolic Activation: RAT, LIVER, S-9, AROCLOR 1254
Calls of active or inactive are those of the source. How the calls were made is not given here.
# output must be one of active, inactive

Worked examples, 3 compounds total:
COc1cc2c(c(OC)c1OC)-c1ccc(OC)c(=O)cc1[C@@H](NC(C)=O)CC2 | inactive
FC(F)(F)C(Cl)Br (stereo unspecified) | inactive
O=c1ccc2ccccc2o1 | active

Incoming: Please state the recorded outcome for this compound: C=C1C/C(=C/C)C(=O)O[C@@H]2CCN3CC=C(COC(=O)[C@@]1(O)CO)[C@H]23
Outgoing: active

Incoming: Which result was noted for this compound in the test: Nc1ccc(O)c(N)c1
Outgoing: inactive

Incoming: What was the test verdict on ClC1=C(Cl)[C@]2(Cl)[C@@H]3[C@@H]4C[C@@H]([C@H]5O[C@@H]45)[C@@H]3[C@@]1(Cl)C2(Cl)Cl ?
Outgoing: inactive

Incoming: Lab log entry: CCCC=O — outcome as called in the assay?
Outgoing: inactive

Incoming: // param item: ClCC(Cl)(Cl)Cl ; yields the recorded call
Outgoing: inactive

Incoming: For this compound, state the assay outcome: CCOC(=O)C1OC1(C)c1ccccc1 (stereo unspecified)
Outgoing: active

Incoming: Give the logged outcome of this assay for the following compound: CC(Cl)CCl (stereo unspecified)
Outgoing: active

Incoming: Which outcome did this test record for the compound C=CC=O ?
Outgoing: inactive

These data points were gathered from PubChem BioAssay AID1259407.
